# assayedTarget: T1, PUF4 RNA-binding domain (Saccharomyces cerevisiae, UniProt P25339 537-888)
# T1 sequence: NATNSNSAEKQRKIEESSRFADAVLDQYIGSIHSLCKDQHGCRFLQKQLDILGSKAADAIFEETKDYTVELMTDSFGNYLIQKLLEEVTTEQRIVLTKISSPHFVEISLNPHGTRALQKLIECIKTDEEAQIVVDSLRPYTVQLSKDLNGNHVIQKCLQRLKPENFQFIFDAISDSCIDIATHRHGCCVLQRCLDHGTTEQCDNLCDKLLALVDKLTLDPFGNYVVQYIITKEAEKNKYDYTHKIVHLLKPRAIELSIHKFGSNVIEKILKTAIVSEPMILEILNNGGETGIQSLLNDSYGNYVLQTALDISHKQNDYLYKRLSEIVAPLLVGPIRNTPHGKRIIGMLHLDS
# assayMethodText: Mg; RNA-MaP; 20 mM Na-HEPES pH 7.4, 30 mM KOAc, 0.75 mM MgCl2, 0.1% Tween-20, 5% glycerol, 0.1 mg/mL BSA, 2 mM DTT; 25 C; 0.0125-409.6 nM protein
# conditionSet: tags: N-His6-TEV cleaved; C-SNAP kept, Cy3B-labelled; label: tethered on chip by stalled RNA polymerase
observationType: log10 of Kd (log10 of the value in nM)
Values are log10 of Kd in nM.

Lookup: For the binder shown here, UCUCUUUUCGUAUUAUUAUCUCUU (ssRNA) [Ie_S1_P5E.1_K5.1_C5.1_H5.1_[+1TC]_A5.1_F5.1_T5.1] , give the reported log10 of Kd.
Found: 3.09

Lookup: How about this binder: ACAAACCUUAUAUUAUUACGACAAAC (ssRNA) [Id_ii_S3_P5E.3_K5.2_C5.2_H5.2_A5.1_F5.1_T5.2_[T11C]_[A12G]]
Found: 2.61

Lookup: Same for UCUCUUCUCCUCUUGUAUAUAUAUCUCUU (ssRNA) [Ie_S1_P3E.2_K3.1_C3.2_[+-1CCTCT]_H3.1_A3.1_F3.1_T3.2]
Found: 0.59

Lookup: Here is the next binder: UCUCUUAUUAUAUAUACGUCUCUU (ssRNA) [Id_ii_S1_P3E.3_K3.2_C3.2_[C-2A]_H3.2_A3.1_F3.1_T3.2_[T9C]_[A10G]]
Found: 3.27

Lookup: Then Id_ii_S2_P3E.4_K3.3_C3.2_[C-2A]_H3.3_A3.1_F3.1_T3.2_[T9C] (ssRNA) RNA: UUUGAUUAAUAUGAUAUCGUUCUUUCUAUACACUAUACAUUCUUUCUCGAUAUCAUAUUAAUCUUU ?
Found: 1.34

Lookup: Likewise for UCUCUUUGUACCUUAUUAUCUCUU (ssRNA) [Ie_S1_P4E.1_K4.1_C4.1_H4.1_[+4CCT]_A4.1_F4.1_T4.1] ?
Found: 0.68
